Biological target: hDGAT1 (Homo sapiens)
Construct: made in house; host or cells: Sf9 insect cells (baculovirus); microsomal fraction
Sequence (O75907 1-488): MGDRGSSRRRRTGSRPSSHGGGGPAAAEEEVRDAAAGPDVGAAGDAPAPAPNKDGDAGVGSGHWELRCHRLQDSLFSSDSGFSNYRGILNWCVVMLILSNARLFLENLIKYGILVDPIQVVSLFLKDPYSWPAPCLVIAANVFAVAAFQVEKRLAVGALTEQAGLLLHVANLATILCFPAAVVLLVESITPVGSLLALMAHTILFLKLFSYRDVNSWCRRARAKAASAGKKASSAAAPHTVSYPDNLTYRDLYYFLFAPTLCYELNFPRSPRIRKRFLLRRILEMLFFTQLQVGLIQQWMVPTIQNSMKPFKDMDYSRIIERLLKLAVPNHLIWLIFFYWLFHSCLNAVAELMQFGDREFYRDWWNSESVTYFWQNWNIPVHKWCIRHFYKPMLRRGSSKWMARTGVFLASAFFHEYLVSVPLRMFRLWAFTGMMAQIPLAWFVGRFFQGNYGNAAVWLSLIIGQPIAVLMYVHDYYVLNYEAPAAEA
Assay: In-vitro DGAT1 assay with hDGAT1 microsomes from Sf9 cells (14C oleoyl CoA, scintillation counting)
Type: biochemical
Settings: read-out: Percentage inhibition of hDGAT1
Counter-ions that a name gives are not always drawn.

# compound, inhibition at 1 µM
data = [
    ("O=C(O)CCCc1ncc(-c2ccc(NC(=O)Nc3cccc(C(F)(F)F)c3)cc2)s1", "> 50%"),
    ("O=C(O)CCCc1nnc(-c2ccc(NC(=O)Nc3ccc(F)cc3F)cc2)o1", "20 to 50%"),
    ("CC(C)(CCc1ncc(-c2ccc(NC(=O)NCc3ccc(C#N)cc3)cc2)s1)C(=O)O", "20 to 50%"),
    ("O=C(Nc1ccc(-c2cnc(C3CCC(C(=O)O)CC3)s2)cc1)Nc1c(F)cccc1F (centres unmarked)", "> 50%"),
    ("NCCc1ncc(-c2ccc(NC(=O)Nc3cc(F)c(F)cc3F)cc2)s1 [Example 575, hydrochloride]", "20 to 50%"),
    ("O=C(Nc1ccc(-c2cnc(C3CCC(C(=O)O)CC3)s2)cc1)Nc1c(F)cccc1C(F)(F)F (centres unmarked)", "20 to 50%"),
    ("O=C(O)CC1CCC(c2ncc(-c3ccc(NC(=O)Nc4c(F)cc(F)cc4F)cc3)s2)CC1 (centres unmarked)", "> 50%"),
    ("COc1ccc(S(=O)(=O)Nc2ccc(-c3cnc(CCC(=O)O)s3)cc2)c(OC)c1", "20 to 50%"),
]
